Hey, just so you know, these numbers are from patent US12612389B2.

# Assay method text: Metabolic stability test in liver microsomes
# Format: in vitro ADME
# Condition description: Mouse; −NADPH; 0.5 mg protein/mL; 37° C.
Reported metric: Residue (%) after culturing for 30 min
Express it in %; write the number only.

Below: 5 compounds and their reported Residue (%) after culturing for 30 min.
CCOCCn1c(Cl)c(/C=N/NC(=O)c2cc3cc(C)ccc3o2)c2cc(OC)ccc21 = 89.93
CCOCCn1c(Cl)c(/C=N/NC(=O)c2cc3cc(C)ccc3o2)c2ccccc21 = 47.95
Cc1ccc2oc(C(=O)N/N=C/c3c(Cl)n(C)c4ccccc34)cc2c1 = 11.59
CCOC(=O)Cn1c(Cl)c(/C=N/NC(=O)c2cc3cc(C)ccc3o2)c2ccccc21 = 6.81
CCOCCn1c(Cl)c(/C=N/NC(=O)c2cc3cc(OC)ccc3o2)c2cc(OC)ccc21 = 86.31

Proceeding to the next compound to report its Residue (%) after culturing for 30 min.
Given the entry O=C1CC2(CCCC2)CC(=O)N1CCCCN1CCN(c2ncccn2)CC1 [Buspirone, buspirone, reference compound] , report its measured Residue (%) after culturing for 30 min.
94.74
